B1: Myc3-iSH2-p110β (wild type) [bovine | human] / GST-Rab5 wild-type [canine] (parent complex)
chain 1: LYEDYTRTSQEIQMKRTAIEAFNETIKIFEEQCQTQERYSKEYIEKFKREGNETEIQRIMHNYEKLKSRISEIVDSRRRLEEDLKKQAAEYREIDKRMNSIKGGGGGGGMCFSFIMPPAMADILDIWAVDSQIASDGSIPVDFLLPTGIYIQLEVPREATISYIKQMLWKQVHNYPMFNLLMDIDSYMFACVNQTAVYEELEDETRRLCDVRPFLPVLKLVTRSCDPGEKLDSKIGVLIGKGLHEFDSLKDPEVNEFRRKMRKFSEEKILSLVGLSWMDWLKQTYPPEHEPSIPENLEDKLYGGKLIVAVHFENCQDVFSFQVSPNMNPIKVNELAIQKRLTIHGKEDEVSPYDYVLQVSGRVEYVFGDHPLIQFQYIRNCVMNRALPHFILVECCKIKKMYEQEMIAIEAAINRNSSNLPLPLPPKKTRIISHVWENNNPFQIVLVKGNKLNTEETVKVHVRAGLFHGTELLCKTIVSSEVSGKNDHIWNEPLEFDINICDLPRMARLCFAVYAVLDKVKTKKSTKTINPSKYQTIRKAGKVHYPVAWVNTMVFDFKGQLRTGDIILHSWSSFPDELEEMLNPMGTVQTNPYTENATALHVKFPENKKQPYYYPPFDKIIEKAAEIASSDSANVSSRGGKKFLPVLKEILDRDPLSQLCENEMDLIWTLRQDCREIFPQSLPKLLLSIKWNKLEDVAQLQALLQIWPKLPPREALELLDFNYPDQYVREYAVGCLRQMSDEELSQYLLQLVQVLKYEPFLDCALSRFLLERALGNRRIGQFLFWHLRSEVHIPAVSVQFGVILEAYCRGSVGHMKVLSKQVEALNKLKTLNSLIKLNAVKLNRAKGKEAMHTCLKQSAYREALSDLQSPLNPCVILSELYVEKCKYMDSKMKPLWLVYNNKVFGEDSVGVIFKNGDDLRQDMLTLQMLRLMDLLWKEAGLDLRMLPYGCLATGDRSGLIEVVSTSETIADIQLNSSNVAAAAAFNKDALLNWLKEYNSGDDLDRAIEEFTLSCAGYCVASYVLGIGDRHSDNIMVKKTGQLFHIDFGHILGNFKSKFGIKRERVPFILTYDFIHVIQQGKTGNTEKFGRFRQCCEDAYLILRRHGNLFITLFALMLTAGLPELTSVKDIQYLKDSLALGKSEEEALKQFKQKFDEALRESWTTKVNWMAHTVRKDYRS
chain 2: ANRGATRPNGPNTGNKICQFKLVLLGESAVGKSSLVLRFVKGQFHEFQESTIGAAFLTQTVCLDDTTVKFEIWDTAGQERYHSLAPMYYRGAQAAIVVYDITNEESFARAKNWVKELQRQASPNIVIALSGNKADLANKRAVDFQEAQSYADDNSLLFMETSAKTSMNVNEIFMAIAKKLPKNEPQNPGANSARGRGVDLTEPTQPTRSQCCSN

Variants of: B1
assay-overview: GST pull-down, anti-Myc immunoblot quantification; GST-Rab5 fusion proteins (10 µg) on glutathione Sepharose beads, GppCp-loaded; Myc-iSH2-p110β from transfected COS-1 lysates; parent: 100; read off a plot
Below is a list of entries, each paired with its recorded percent of parent value.
assay-readout: percent of parent

In [3]: df
Out[3]:
      variant_id     result
 0  chain 2 Y81A    ~8 % WT
 1  chain 2 R80E   ~23 % WT
 2  chain 2 S83A  ~112 % WT
 3  chain 2 E46A   ~72 % WT
 4  chain 2 W73A   ~26 % WT
 5  chain 2 I52A    ~7 % WT
 6  chain 2 F56A   ~24 % WT
 7  chain 2 Q43E  ~115 % WT
 8  chain 2 H82E   ~12 % WT
 9  chain 2 Y88A   ~15 % WT
10  chain 2 R90E   ~20 % WT
11  chain 2 H45A  ~110 % WT
12  chain 2 L84A   ~16 % WT

Values from paper PMC5700975
